Tested on: P388 leukemia ip, CD2F1 mice, survival T/C
Test: NCI In Vivo Anticancer Drug Screen. Data for tumor model P388 Leukemia (intraperitoneal) in CD2F1 (CDF1) mice
Settings: endpoint: median survival time; dose: 200.0 mg/kg/injection; schedule: Q04DX002 (ip); vehicle: saline with Tween-80; higher = longer survival
Inconclusive results and toxic doses are left out.
Catalogue of T/C readings, one per entry.
observable: T/C

| compound | observable | assay-result |
| --- | --- | --- |
| OCCN1C(c2ccccc2)=CN2C=CSC21 (stereo not drawn) | T/C | 94 % of control |
| CC(CC(=O)c1ccccc1)=NCCCCN=C(C)CC(=O)c1ccccc1 | T/C | 98 % of control |
| C=CC(=O)OC1CC(O)C2(C)CC3C(=C)C(=O)OC3CC(C)C12 (stereo not drawn) | T/C | 110 % of control |
| CC(=O)C1C(C=C(C)C)C1(C)C (stereo not drawn) | T/C | 106 % of control |
| CC(C)CC(Nc1ncnc2c1CCc1ccccc1-2)C(=O)O (stereo not drawn) | T/C | 99 % of control |
| O=c1c(N=Nc2ccccc2)c(O)n(-c2ccc(Cl)cc2)c(=S)n1-c1ccc(Br)cc1 | T/C | 103 % of control |
| CCOC(=O)c1cc(-c2cc(-c3ccccn3)nnc2-c2ccccn2)c(=O)n(C)c1C | T/C | 97 % of control |
| COC1(OC)C2C(Br)=C(Br)C1C1CCC/C=C\CC12 (stereo not drawn) | T/C | 103 % of control |
| NC(=S)NC12CC3CC(CC(C3)C1)C2 | T/C | 98 % of control |
| CC(=Nc1cc(Cl)ccc1O)C1=C(O)c2ccccc2C1=O | T/C | 97 % of control |
| CCN(CC(O)CN(CC1CO1)c1ccccc1)c1ccccc1 (stereo not drawn) | T/C | 94 % of control |
| CC1(c2ccccc2)NN1 | T/C | 95 % of control |
| O=S1(=O)c2ccccc2N(c2ccccc2)c2nnc(-c3ccccc3)n21 | T/C | 92 % of control |
| CC1(C)CC(=O)C(C2=NCCCC2)=C(O)C1 | T/C | 100 % of control |
| O=C(O)Cc1c[nH]c2cc(Cl)cc(Cl)c12 | T/C | 104 % of control |
| CCOP(=O)(O)OCC.[Ga] | T/C | 103 % of control |
| O=C1c2ccccc2C(=O)c2c(Nc3cccc(S(=O)(=O)N(CCO)CCO)c3)ccc(O)c21 | T/C | 93 % of control |
| CS/C(N)=N/NC(=O)CCC(=O)Nc1cc(Cl)c(Cl)cc1Cl | T/C | 100 % of control |

---

Test system: P388 leukemia ip, CD2F1 mice, survival T/C
Assay: NCI In Vivo Anticancer Drug Screen. Data for tumor model P388 Leukemia (intraperitoneal) in CD2F1 (CDF1) mice
Conditions: endpoint: median survival time; dose: 1.56 mg/kg/injection; schedule: Q01DX009 (ip); vehicle: saline; higher = longer survival
Protocol: The antitumor activity of compounds was measured in mice bearing transplantable tumors. Survival or tumor size were measured and the results are expressed as the measurement made in the treated group (T) divided by the measurement made in the vehicle treated control group (C). The tumor model used in this assay is P388 Leukemia (intraperitoneal) in CD2F1 (CDF1) mice
Toxic doses and inconclusive results are not listed.
Catalogue of T/C readings, one per entry.

| compound | T/C |
| --- | --- |
| NCCN.NCCN.NCCN.[Cl-].[Pt] | 101 % of control |
| C=CC(CO)N1CC1 (stereo not given) | 108 % of control |
| CC(C)NCCCNc1c2ccccc2nc2cccc([N+](=O)[O-])c12 | 109 % of control |
| c1ccc(Nc2ccncc2)cc1 | 95 % of control |
| C[n+]1ccc2cc(-c3ccccc3)c3ccccc3c2c1 | 109 % of control |
